# TARGET: UCP1 (Homo sapiens)
# Construct: His8 (N, cleaved yes); Factor Xa protease cleavage site (N, cleaved yes); made in house; host or cells: Saccharomyces cerevisiae strain W303.1B
# Sequence (P25874 1-307): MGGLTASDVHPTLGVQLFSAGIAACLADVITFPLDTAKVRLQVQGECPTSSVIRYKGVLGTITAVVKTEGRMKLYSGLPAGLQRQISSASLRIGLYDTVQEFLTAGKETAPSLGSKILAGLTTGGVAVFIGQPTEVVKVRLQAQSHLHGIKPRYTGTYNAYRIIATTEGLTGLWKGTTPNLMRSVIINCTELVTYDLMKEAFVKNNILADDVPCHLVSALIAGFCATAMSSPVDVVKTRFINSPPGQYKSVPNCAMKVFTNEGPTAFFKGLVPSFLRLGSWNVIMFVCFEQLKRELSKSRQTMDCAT
# ASSAY_DETAILS: Isothermal titration calorimetry of nucleotide binding
# Design: unit not given here
# CONDITION: Molar ratio (Nucleotide/UCP) 0.811976; representative isotherm, pH 6.0, 20 °C
Quick list: isotherm data point (enthalpy change per injection) per entry.
API note: the answer field is a bare number with no unit suffix.

Check out these entries, answers already filled in.
Query: Query (compound): O=c1ccn([C@@H]2O[C@H](CO[P@@](=O)(O)O[P@@](=O)(O)OP(=O)(O)O)[C@@H](O)[C@H]2O)c(=O)[nH]1 (stereo in doubt) [UTP, uridine triphosphate] ; field requested: isotherm data point (enthalpy change per injection)
Response: -11.5031

Query: Query (compound): Nc1nc2c(ncn2[C@@H]2O[C@H](COP(=O)(O)OP(=O)(O)OP(=O)(O)O)[C@@H](O)[C@H]2O)c(=O)[nH]1 [GTP, guanosine triphosphate] ; field requested: isotherm data point (enthalpy change per injection)
Response: -11.9274

Query: Query (compound): Nc1ncnc2c1ncn2[C@@H]1O[C@H](COP(=O)(O)OP(=O)(O)OP(=O)(O)O)[C@@H](O)[C@H]1O [ATP, adenosine triphosphate] ; field requested: isotherm data point (enthalpy change per injection)
Response: -26.1456

Query: Query (compound): Nc1ccn(C2OC(COP(=O)(O)OP(=O)(O)OP(=O)(O)O)C(O)C2O)c(=O)n1 (centres unmarked) [CTP] ; field requested: isotherm data point (enthalpy change per injection)
Response: -10.8499

New cases:
Query: Query (compound): Cc1cn([C@H]2C[C@H](O)[C@@H](COP(=O)(O)OP(=O)(O)OP(=O)(O)O)O2)c(=O)[nH]c1=O [dTTP, thymidine triphosphate] ; field requested: isotherm data point (enthalpy change per injection)
Response: -15.5439

###

Quick list: isotherm data point (enthalpy change per injection) per entry.
# TARGET: UCP1 (Homo sapiens, UniProt P25874)
# Construct: His8 (N, cleaved yes); Factor Xa protease cleavage site (N, cleaved yes); made in house; host or cells: Saccharomyces cerevisiae strain W303.1B
# ASSAY_DETAILS: Isothermal titration calorimetry of nucleotide binding;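 also: purified human UCP1 in cacodylate buffer with lauryl maltose neopentyl glycol and cardiolipin, titrated with nucleotides, isotherms fitted by one-site model yielding ΔH, Kd and stoichiometry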
# Parameters: unit not given here
# CONDITION: Molar ratio (Nucleotide/UCP) 1.91217; representative isotherm, pH 6.0, 20 °C
API note: the answer field is a bare number with no unit suffix.

Check out these entries, answers already filled in.
Query: Query (compound): Cc1cn([C@H]2C[C@H](O)[C@@H](COP(=O)(O)OP(=O)(O)OP(=O)(O)O)O2)c(=O)[nH]c1=O [dTTP, thymidine triphosphate] ; field requested: isotherm data point (enthalpy change per injection)
Response: 0.03383

Query: Query (compound): Nc1ncnc2c1ncn2[C@@H]1O[C@H](COP(=O)(O)OP(=O)(O)OP(=O)(O)O)[C@@H](O)[C@H]1O [ATP, adenosine triphosphate] ; field requested: isotherm data point (enthalpy change per injection)
Response: -0.4754

Query: Query (compound): O=c1ccn([C@@H]2O[C@H](CO[P@@](=O)(O)O[P@@](=O)(O)OP(=O)(O)O)[C@@H](O)[C@H]2O)c(=O)[nH]1 (stereo in doubt) [UTP, uridine triphosphate] ; field requested: isotherm data point (enthalpy change per injection)
Response: -0.08977

Query: Query (compound): Nc1ccn(C2OC(COP(=O)(O)OP(=O)(O)OP(=O)(O)O)C(O)C2O)c(=O)n1 (centres unmarked) ; field requested: isotherm data point (enthalpy change per injection)
Response: -0.1525

Read the next record carefully.
Query: Query (compound): Nc1nc2c(ncn2[C@@H]2O[C@H](COP(=O)(O)OP(=O)(O)OP(=O)(O)O)[C@@H](O)[C@H]2O)c(=O)[nH]1 [GTP, guanosine triphosphate] ; field requested: isotherm data point (enthalpy change per injection)
Response: 0.06373
